Entry source: PubChem BioAssay (EPA / NIEHS)

Assay: ATG_PXRE_CIS: Attagene CIS-FACTORIAL HepG2 Assay for human Pregnane X Receptor Element (PXRE) (AID 2282957)
Conditions: HepG2 Attagene CIS-FACTORIAL PXRE reporter, mRNA; actives raise or lower the signal
Protocol: ATG_CIS is a cell-based, multiplexed-readout assay that uses HepG2, a human liver cell line, with measurements taken at 24 hours after chemical dosing in a 24-well plate.ATG_PXRE_CIS is one of 52 assay component(s) measured or calculated from the ATG_CIS assay. […] This assay endpoint, ATG_PXRE_CIS, was analyzed with bidirectional fitting relative to DMSO as the negative control and baseline of activity. […]
The source made the active and inactive calls. How the source made its calls: active means hit-call score of the fitted dose curve at least 0.9, where 1 is the maximum; inactive means score below 0.9.
Assay readout: AC50

compound=Cc1ccc(C(C)(C)C)c(O)c1 endpoint_result="25 µM (active)"
compound=CCc1nc(N)nc(N)c1-c1ccc(Cl)cc1 endpoint_result=inactive
compound=CC1=C(C)S(=O)(=O)CCS1(=O)=O endpoint_result=inactive
compound=CC(C)(O)c1ccc(CNC(=O)c2cccnc2Oc2ccc(F)cc2)cc1 endpoint_result="7.12 µM (active)"
compound=NC1CCCCC1 endpoint_result=inactive
compound=O=C(Oc1ccccc1)c1cccc(C(=O)Oc2ccccc2)c1 endpoint_result=inactive
compound=C=CCCCCCCCCCCCC endpoint_result=inactive
compound=CC(=O)S[C@H](C(=O)N[C@H]1Cc2ccccc2[C@H]2CCC[C@@H](C(=O)O)N2C1=O)C(C)C endpoint_result="40.9 µM (active)"
compound=CCCCCCCCCC[N+](C)(C)[O-] endpoint_result="79 µM (active)"
compound=CCN(CC)CCOc1ccc(C(=C(Cl)c2ccccc2)c2ccccc2)cc1 endpoint_result="945 nM (active) [middle of 4 runs]"
compound="CC(=O)OC1CC(C)OC(C)O1 (stereo not drawn)" endpoint_result=inactive
compound="CCCCC(CC)COC(=O)CCCCCCCC(=O)OCC(CC)CCCC (stereo not drawn)" endpoint_result=inactive
compound=N[C@@H](Cc1c[nH]c2ccccc12)C(=O)O endpoint_result=inactive

---

test system: Thyroperoxidase (TPO), gene 54314; assay: CCTE_Simmons_AUR_rTPO: CCTE's Amplex UltraRed Assay for Thyroperoxidase (TPO) Inhibition, Simmons Lab (AID 2283662);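 further: potency for loss of signal meaning inhibition of peroxidase activity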
Calls of active or inactive are those of the source. The calls were made as follows: active = hit-call score of the fitted dose curve at least 0.9, where 1 is the maximum; inconclusive = response in the unintended direction; inactive = score below 0.9.
Assay readout: AC50

compound=Cc1cc(SC2=C(O)C[C@@](CCc3ccc(N)cc3)(C(C)C)OC2=O)c(C(C)(C)C)cc1CO endpoint_result="738 nM (active)"
compound=O=C1OC(c2ccc(O)cc2)(c2ccc(O)cc2)c2ccccc21 endpoint_result="2990 nM (active)"
compound=O=C1c2c(O)cccc2Cc2cccc(O)c21 endpoint_result="11900 nM (active)"
compound=Oc1ccc(O)cc1 endpoint_result="767 nM (active)"
compound=Cc1occc(=O)c1O endpoint_result="21700 nM (active)"
compound=Oc1ccccc1O endpoint_result="840 nM (active)"
compound=Nc1nc(=S)c2[nH]cnc2[nH]1 endpoint_result="414 nM (active)"
compound=C/C=C/C=C/C(=O)O endpoint_result="48800 nM (active)"
compound=S=c1[nH]c2ccccc2s1 endpoint_result="433 nM (active)"
compound="Cc1c(C)c2c(c(C)c1O)CCC(C)(COc1ccc(CC3SC(=O)NC3=O)cc1)O2 (centres undefined)" endpoint_result="1910 nM (active)"
compound="CC(C)NCC(O)c1ccc(O)c(O)c1 (centres undefined)" endpoint_result="616 nM (active)"
compound=COC(=O)[C@H]1[C@H]2C[C@@H]3c4[nH]c5cc(OC)ccc5c4CCN3C[C@H]2C[C@@H](OC(=O)c2cc(OC)c(OC)c(OC)c2)[C@@H]1OC endpoint_result="7300 nM (active)"
compound=O=Cc1ccccc1C=O endpoint_result="41800 nM (active)"
